target: T1, c-erbB-2 ECD with a Ser-Gly-His6 C-terminal fusion (UniProt P04626 23-652); experiment: SPR BIAcore
T1 construct: extracellular domain; Expressed from CHO cells, IMAC purified; coupled to a CM5 chip, coated on plates, or biotinylated with NHS-LC-biotin; also called c-erbB-2 extracellular domain; biotinylated c-erbB-2 ECD

{"BINDER": "C6.5S100bA (scFv, C6.5 VH CDR3 scan mutant; Kabat numbering) scFv: QVQLLQSGAELKKPGESLKISCKGSGYSFTSYWIAWVRQMPGKGLEYMGLIYPGDSDTKYSPSFQGQVTISVDKSVSTAYLQWSSLKPSDSAVYFCARHDVGYCSASNCAKWPEYFQHWGQGTLVTVSSGGGGSGGGGSGGGGSQSVLTQPPSVSAAPGQKVTISCSGSSSNIGNNYVSWYQQLPGTAPKLLIYGHTNRPAGVPDRFSGSKSGTSASLAISGFRSEDEADYYCAAWDDSLSGWVFGGGTKLTVLG", "Kd": "47 nM"}
{"BINDER": "C6.5Y99A (scFv, C6.5 VH CDR3 scan mutant; Kabat numbering) scFv: QVQLLQSGAELKKPGESLKISCKGSGYSFTSYWIAWVRQMPGKGLEYMGLIYPGDSDTKYSPSFQGQVTISVDKSVSTAYLQWSSLKPSDSAVYFCARHDVGACSSSNCAKWPEYFQHWGQGTLVTVSSGGGGSGGGGSGGGGSQSVLTQPPSVSAAPGQKVTISCSGSSSNIGNNYVSWYQQLPGTAPKLLIYGHTNRPAGVPDRFSGSKSGTSASLAISGFRSEDEADYYCAAWDDSLSGWVFGGGTKLTVLG", "Kd": "59 nM"}
{"BINDER": "C6.5V97A (scFv, C6.5 VH CDR3 scan mutant; Kabat numbering) scFv: QVQLLQSGAELKKPGESLKISCKGSGYSFTSYWIAWVRQMPGKGLEYMGLIYPGDSDTKYSPSFQGQVTISVDKSVSTAYLQWSSLKPSDSAVYFCARHDAGYCSSSNCAKWPEYFQHWGQGTLVTVSSGGGGSGGGGSGGGGSQSVLTQPPSVSAAPGQKVTISCSGSSSNIGNNYVSWYQQLPGTAPKLLIYGHTNRPAGVPDRFSGSKSGTSASLAISGFRSEDEADYYCAAWDDSLSGWVFGGGTKLTVLG", "Kd": "48 nM"}
